Give measured rate of eluted recombinant protein (%) at 60 min for each item. Keep answers brief.
- tested system: recombinant cohesin (CipA of Clostridium josui, BAA32429) (Clostridium josui)
- assay text: batch elution of N-terminal fusion from cohesin carrier with 5 mM EGTA at 4 C, SDS-PAGE densitometry, 360 min set to 100
Ends that are not written are not given here.
Answers are plain numbers, in %.

Here are 7 binders. What values of rate of eluted recombinant protein (%) at 60 min were reported for them?
1. recombinant JNK3 of which an I49N-substituted dockerin polypeptide was fused at the N-terminal (protein, not shown: large carriers; small tags and cut ends) MGLKGDVNNDGAIDALDIAALKKAILTQSTSNINLTNADMNNDGNIDANDFAQLKVKLLN
2. recombinant JNK3 of which an L16T/I49T-substituted dockerin polypeptide is fused at the N-terminal (protein, not shown: large carriers; small tags and cut ends) MGLKGDVNNDGAIDATDIAALKKAILTQSTSNINLTNADMNNDGNIDATDFAQLKVKLLN
3. recombinant JNK3 of which a wild-type dockerin was fused at the N-terminal (protein, not shown: large carriers; small tags and cut ends, not fully specified (C-terminus)) MGLKGDVNNDGAIDALDIAALKKAILTQSTSNINLTNADMNNDGNIDAIDFAQLKVKLLN
4. recombinant JNK3 of which an I49G-substituted dockerin polypeptide is fused at the N-terminal (protein, not shown: large carriers; small tags and cut ends) MGLKGDVNNDGAIDALDIAALKKAILTQSTSNINLTNADMNNDGNIDAGDFAQLKVKLLN
5. recombinant JNK3 of which an I49T-substituted dockerin polypeptide is fused at the N-terminal (protein, not shown: large carriers; small tags and cut ends) MGLKGDVNNDGAIDALDIAALKKAILTQSTSNINLTNADMNNDGNIDATDFAQLKVKLLN
6. recombinant JNK3 of which an I49V-substituted dockerin polypeptide is fused at the N-terminal (protein, not shown: large carriers; small tags and cut ends) MGLKGDVNNDGAIDALDIAALKKAILTQSTSNINLTNADMNNDGNIDAVDFAQLKVKLLN
7. recombinant JNK3 of which an I49S-substituted dockerin polypeptide is fused at the N-terminal (protein, not shown: large carriers; small tags and cut ends) MGLKGDVNNDGAIDALDIAALKKAILTQSTSNINLTNADMNNDGNIDASDFAQLKVKLLN

100
100
39.6
100
100
68.2
100
